Assay: NCI Yeast Anticancer Drug Screen. Data for the wt2 strain (AID 169);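 note: 0% = growth of vehicle-treated yeast cultures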
Details: S. cerevisiae wt2 strain growth inhibition; at 33.0 µM; active compounds read high
About 79,000 compounds went through this panel and 15% of them were active in at least one assay; those are over-represented in the sample as a whole.
Recorded growth inhibition values for a group of compounds are listed next.
Report only the number, with the unit % understood.

{"smiles structure": "O=C1C=C(Cl)C(=O)N1c1cccc(Cl)c1", "observable": "growth inhibition", "assay value": 100}

Query: Item N/C(=N/N=C/c1cc(Br)cc(Br)c1O)NO has what recorded growth inhibition?
Response: 94

Query: Now consider CNCCCNc1c2ccccc2nc2cccc([N+](=O)[O-])c12 .
Response: 97

Query: Now consider NC(=O)c1c([N+](=O)[O-])cc(C(F)(F)F)cc1[N+](=O)[O-] .
Response: 4

Query: Now consider COc1ccc(/C=C/C(=O)c2ccccc2)cc1OC .
Response: 38

Query: Now consider CCN(CC)CCN(C)CCc1ccc(Br)cc1 .
Response: 68
